assay: Pharmacokinetics, unchanged RAF265 in plasma; type: in vivo, human; settings: human, plasma, oral, 36 mg, First dose (PK run-in), DL 3, 36 mg; read-out: Tmax, Median
recorded-metric: Tmax (h)
Answers are plain numbers, in h.

Quick note, Tmax for Cn1c(Nc2ccc(C(F)(F)F)cc2)nc2cc(Oc3ccnc(-c4ncc(C(F)(F)F)[nH]4)c3)ccc21 [RAF265] landed at 2.52

* * *

assay: Pharmacokinetics, unchanged RAF265 in plasma; assay type: in vivo, human; settings: human, plasma, oral, 24 mg, Cycle 1 Day 15, DL 5, MD 24 mg; read-out: AUC(0-tlast), Mean (SD)
recorded-metric: AUC(0-t) (ng·h/mL)
Give bare numbers, in ng·h/mL.

Lab note: Cn1c(Nc2ccc(C(F)(F)F)cc2)nc2cc(Oc3ccnc(-c4ncc(C(F)(F)F)[nH]4)c3)ccc21 [RAF265] gave AUC(0-t) of 16100

* * *

assay: Pharmacokinetics, unchanged RAF265 in plasma; type: in vivo, human; details: human, plasma, oral, 67 mg, Cycle 1 Day 15, DL 7, MD 67 mg; read-out: AUC(0-tlast), Mean (SD)
recorded-metric: AUC(0-t) (ng·h/mL)
Numbers only, in ng·h/mL.

The compound listed as Cn1c(Nc2ccc(C(F)(F)F)cc2)nc2cc(Oc3ccnc(-c4ncc(C(F)(F)F)[nH]4)c3)ccc21 [RAF265] has a reported AUC(0-t) of 46800

* * *

assay: Pharmacokinetics, unchanged RAF265 in plasma; assay type: in vivo, human; conditions: human, plasma, oral, 72 mg, First dose (PK run-in), DL 4, 72 mg; read-out: AUC(0-tlast), Mean (SD)
recorded-metric: AUC(0-t) (ng·h/mL)
Numbers only, in ng·h/mL.

Reported AUC(0-t) for Cn1c(Nc2ccc(C(F)(F)F)cc2)nc2cc(Oc3ccnc(-c4ncc(C(F)(F)F)[nH]4)c3)ccc21 [RAF265] was 22600

* * *

Assay: Pharmacokinetics, unchanged RAF265 in plasma
Type: in vivo, human
Details: human, plasma, oral, 322 mg, Cycle 1 Day 1, DL 7, LD 322 mg; read-out: Tmax, Median
Description: PK parameters included the maximum observed concentration (C max), time to reach C max (T max), area under the curve from time 0 to last measurable concentration (AUClast), time point of the last measurable concentration (T last), and terminal half‐life of elimination phase (T 1/2). Cycle 1 Day 1 and day 15, reported PK parameters include C max, T max, AUClast and T last. […] The point estimate and associated 90% CI for the slope parameter were determined for safety considerations.
recorded-metric: Tmax (h)
Give bare numbers, in h.

Lab book: Tmax of Cn1c(Nc2ccc(C(F)(F)F)cc2)nc2cc(Oc3ccnc(-c4ncc(C(F)(F)F)[nH]4)c3)ccc21 noted as 3

* * *

assay: Pharmacokinetics, unchanged RAF265 in plasma; assay type: in vivo, human; details: human, plasma, oral, 16 mg, Cycle 1 Day 1, DL 2, LD 16 mg; read-out: AUC(0-tlast), Mean (SD)
recorded-metric: AUC(0-t) (ng·h/mL)
One number for each entry, in ng·h/mL.

Record Cn1c(Nc2ccc(C(F)(F)F)cc2)nc2cc(Oc3ccnc(-c4ncc(C(F)(F)F)[nH]4)c3)ccc21 , field AUC(0-t): 2650

* * *

assay: Pharmacokinetics, unchanged RAF265 in plasma; format: in vivo, human; conditions: human, plasma, oral, 36 mg, First dose (PK run-in), DL 3, 36 mg; read-out: AUC(0-tlast), Mean (SD)
recorded-metric: AUC(0-t)

The compound listed as Cn1c(Nc2ccc(C(F)(F)F)cc2)nc2cc(Oc3ccnc(-c4ncc(C(F)(F)F)[nH]4)c3)ccc21 [RAF265] has a reported AUC(0-t) of 12100 ng·h/mL

* * *

assay: Pharmacokinetics, unchanged RAF265 in plasma; type: in vivo, human; conditions: human, plasma, oral, 10 mg, First dose (PK run-in), DL 1, 10 mg; read-out: Cmax, Mean (SD)
recorded-metric: Cmax (ng/mL)
One number for each entry, in ng/mL.

Record summary for Cn1c(Nc2ccc(C(F)(F)F)cc2)nc2cc(Oc3ccnc(-c4ncc(C(F)(F)F)[nH]4)c3)ccc21 : reported Cmax = 140

* * *

assay: Pharmacokinetics, unchanged RAF265 in plasma; format: in vivo, human; conditions: human, plasma, oral, 29 mg, Cycle 1 Day 1, DL 3, LD 29 mg; read-out: Tmax, Median
recorded-metric: Tmax (h)
One number for each entry, in h.

For Cn1c(Nc2ccc(C(F)(F)F)cc2)nc2cc(Oc3ccnc(-c4ncc(C(F)(F)F)[nH]4)c3)ccc21 the compound record lists Tmax as 3.53
